Listed next: entries and their corresponding Km.
- Substrate: O=C(O)C(=O)O
- assay: purified protein
- experimental.parameters: pH 4.2 (optimum), 52 mM sodium acetate, 140 mM NaCl, 37 °C, potassium oxalate 0-150 mM, Mn enzyme
experimental.endpoint: Km (mM)

[
  {
    "protein": "Oxalate decarboxylase (OxDC) (Bacillus subtilis subsp. subtilis str. 168; H279D/T263E) (protein) MKKQNDIPQPIRGDKGATVKIPRNIERDRQNPDMLVPPETDHGTVSNMKFSFSDTHNRLEKGGYAREVTVRELPISENLASVNMRLKPGAIRELHWHKEAEWAYMIYGSARVTIVDEKGRSFIDDVGEGDLWYFPSGLPHSIQALEEGAEFLLVFDDGSFSENSTFQLTDWLAHTPKEVIAANFGVTKEEISNLPGKEKYIFENQLPGSLKDDIVEGPNGEVPYPFTYRLLEQEPIESEGGKVYIADSTNFKVSKTIASALVEVEPGAMRELHWHPNTDEWQYYISGKARMTVFASDGHARTFNYQAGDVGYVPFAMGHYVENIGDEPLVFLEIFKDDHYADVSLNQWLAMLPETFVQAHLDLGKDFTDVLSKEKHPVVKKKCSK",
    "measured.result": 5
  },
  {
    "protein": "Oxalate decarboxylase (OxDC) (Bacillus subtilis subsp. subtilis str. 168; I191F/T263E) (protein) MKKQNDIPQPIRGDKGATVKIPRNIERDRQNPDMLVPPETDHGTVSNMKFSFSDTHNRLEKGGYAREVTVRELPISENLASVNMRLKPGAIRELHWHKEAEWAYMIYGSARVTIVDEKGRSFIDDVGEGDLWYFPSGLPHSIQALEEGAEFLLVFDDGSFSENSTFQLTDWLAHTPKEVIAANFGVTKEEFSNLPGKEKYIFENQLPGSLKDDIVEGPNGEVPYPFTYRLLEQEPIESEGGKVYIADSTNFKVSKTIASALVEVEPGAMRELHWHPNTHEWQYYISGKARMTVFASDGHARTFNYQAGDVGYVPFAMGHYVENIGDEPLVFLEIFKDDHYADVSLNQWLAMLPETFVQAHLDLGKDFTDVLSKEKHPVVKKKCSK",
    "measured.result": 5
  },
  {
    "protein": "Oxalate decarboxylase (OxDC) (Bacillus subtilis subsp. subtilis str. 168; H279D/I191F) (protein) MKKQNDIPQPIRGDKGATVKIPRNIERDRQNPDMLVPPETDHGTVSNMKFSFSDTHNRLEKGGYAREVTVRELPISENLASVNMRLKPGAIRELHWHKEAEWAYMIYGSARVTIVDEKGRSFIDDVGEGDLWYFPSGLPHSIQALEEGAEFLLVFDDGSFSENSTFQLTDWLAHTPKEVIAANFGVTKEEFSNLPGKEKYIFENQLPGSLKDDIVEGPNGEVPYPFTYRLLEQEPIESEGGKVYIADSTNFKVSKTIASALVTVEPGAMRELHWHPNTDEWQYYISGKARMTVFASDGHARTFNYQAGDVGYVPFAMGHYVENIGDEPLVFLEIFKDDHYADVSLNQWLAMLPETFVQAHLDLGKDFTDVLSKEKHPVVKKKCSK",
    "measured.result": 5
  },
  {
    "protein": "Oxalate decarboxylase (OxDC) (Bacillus subtilis subsp. subtilis str. 168; I191F) (protein) MKKQNDIPQPIRGDKGATVKIPRNIERDRQNPDMLVPPETDHGTVSNMKFSFSDTHNRLEKGGYAREVTVRELPISENLASVNMRLKPGAIRELHWHKEAEWAYMIYGSARVTIVDEKGRSFIDDVGEGDLWYFPSGLPHSIQALEEGAEFLLVFDDGSFSENSTFQLTDWLAHTPKEVIAANFGVTKEEFSNLPGKEKYIFENQLPGSLKDDIVEGPNGEVPYPFTYRLLEQEPIESEGGKVYIADSTNFKVSKTIASALVTVEPGAMRELHWHPNTHEWQYYISGKARMTVFASDGHARTFNYQAGDVGYVPFAMGHYVENIGDEPLVFLEIFKDDHYADVSLNQWLAMLPETFVQAHLDLGKDFTDVLSKEKHPVVKKKCSK",
    "measured.result": 7
  }
]
